# Tested on: OVCAR-4
# protocol: Cytotoxicity against human OVCAR4 cells at 10 uM after 48 hrs by sulforhodamine B assay relative to control
# Assay type: functional
propertyName: Activity (%)
Numbers only, in %.

Looking for the measured Activity of O=C(CN1CCCC1)Nc1ccc2c(c1)C(=O)c1cc(NC(=O)CN3CCCC3)ccc1-2 , can you help?
71.07

Moving on to the next molecule: O=C(CCN1CCOCC1)Nc1ccc2c(c1)C(=O)c1cc(NC(=O)CCN3CCOCC3)ccc1-2
105.22

Moving on to the next molecule: CCCNCC(=O)Nc1ccc2c(c1)C(=O)c1cc(NC(=O)CNCCC)ccc1-2
65.9

Moving on to the next molecule: CCNCC(=O)Nc1ccc2c(c1)C(=O)c1cc(NC(=O)CNCC)ccc1-2
69.72

Okay, next one:
Looking for the measured Activity of CCCSCC(=O)Nc1ccc2c(c1)C(=O)c1cc(NC(=O)CSCCC)ccc1-2 , can you help?
106.85

* * *

# Tested on: BT-549
# protocol: Cytotoxicity against human BT549 cells at 10 uM after 48 hrs by sulforhodamine B assay relative to control
# Format: functional
propertyName: Activity

Dear colleague, could you please provide Activity for the compounds listed below?
1. CCSCCC(=O)Nc1ccc2c(c1)C(=O)c1cc(NC(=O)CCSCC)ccc1-2
2. CCCSCC(=O)Nc1ccc2c(c1)C(=O)c1cc(NC(=O)CSCCC)ccc1-2
3. CN1CCN(CCC(=O)Nc2ccc3c(c2)C(=O)c2cc(NC(=O)CCN4CCN(C)CC4)ccc2-3)CC1
4. O=C(CCN1CCOCC1)Nc1ccc2c(c1)C(=O)c1cc(NC(=O)CCN3CCOCC3)ccc1-2
5. CCNCC(=O)Nc1ccc2c(c1)C(=O)c1cc(NC(=O)CNCC)ccc1-2
6. O=C(CN1CCCC1)Nc1ccc2c(c1)C(=O)c1cc(NC(=O)CN3CCCC3)ccc1-2

97.04%
79.13%
107.82%
113.53%
123.2%
101.36%

Give BT-549 Activity for CCCNCC(=O)Nc1ccc2c(c1)C(=O)c1cc(NC(=O)CNCCC)ccc1-2
97.53%

* * *

Would you mind telling me the reported Activity of each entry?
# protocol: Cytotoxicity against human Hs 578T cells at 10 uM after 48 hrs by sulforhodamine B assay relative to control
# Format: functional
Numbers only, in %.

Previously resolved entries follow.
Looking for the measured Activity of O=C(CCN1CCOCC1)Nc1ccc2c(c1)C(=O)c1cc(NC(=O)CCN3CCOCC3)ccc1-2 , can you help?
101.67

Moving on to the next compound: CN1CCN(CC(=O)Nc2ccc3c(c2)C(=O)c2cc(NC(=O)CN4CCN(C)CC4)ccc2-3)CC1
107.34

Okay, next one:
Looking for the measured Activity of CN1CCN(CCC(=O)Nc2ccc3c(c2)C(=O)c2cc(NC(=O)CCN4CCN(C)CC4)ccc2-3)CC1 , can you help?
102.5
